molecular target: T1, Mu HER3 (CD33-[Murine HER3, residues 20-643]-TAG) (mouse, UniProt Q61526 20-643); test: solution equilibrium titration (SET), IgG
T1 construct: range 20-643; CD33 leader left out as signal; also called mu HER3-Tag; not shown: C-terminal TAG (e.g. FLAG TAG)
Below is a list of entries, each paired with its recorded pKd value.
Quick note: pKd values are minus log10 of concentrations in mol/L.

Look over these answered cases.
binder | pKd
MOR10701 (antibody, human IgG1, kappa, V domains shown, tested as IgG) VH: EVQLLESGGGLVQPGGSLRLSCAASGFTFSSYAMSWVRQAPGKGLEWVSVTGAVGRSTYYPDSVKGRFTISRDNSKNTLYLQMNSLRAEDTAVYYCARWGDEGFDIWGQGTLVTVSS VL: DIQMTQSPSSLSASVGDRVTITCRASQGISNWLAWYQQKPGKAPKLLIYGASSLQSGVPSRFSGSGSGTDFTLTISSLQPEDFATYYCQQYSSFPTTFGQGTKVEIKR | 11.22
MOR09825 (antibody, human IgG1, kappa, V domains shown, tested as IgG) VH: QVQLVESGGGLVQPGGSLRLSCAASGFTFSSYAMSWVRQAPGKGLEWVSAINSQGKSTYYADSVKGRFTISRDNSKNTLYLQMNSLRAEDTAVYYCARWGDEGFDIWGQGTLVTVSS VL: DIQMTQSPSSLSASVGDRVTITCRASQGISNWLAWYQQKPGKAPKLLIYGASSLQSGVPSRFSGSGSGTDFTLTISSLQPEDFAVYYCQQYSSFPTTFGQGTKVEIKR | 10.62
MOR09824 (antibody, human IgG1, kappa, V domains shown, tested as IgG) VH: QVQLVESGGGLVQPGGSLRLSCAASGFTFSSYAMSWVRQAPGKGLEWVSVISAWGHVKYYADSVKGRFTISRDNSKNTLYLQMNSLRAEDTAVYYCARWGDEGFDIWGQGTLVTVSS VL: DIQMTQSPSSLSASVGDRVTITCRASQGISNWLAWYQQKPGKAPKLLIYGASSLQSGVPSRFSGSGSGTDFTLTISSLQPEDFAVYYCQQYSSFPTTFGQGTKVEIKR | 11.70

// moving on: another record for pKd
(Q) Given the entry MOR09823 (antibody, human IgG1, kappa, V domains shown, tested as IgG) VH: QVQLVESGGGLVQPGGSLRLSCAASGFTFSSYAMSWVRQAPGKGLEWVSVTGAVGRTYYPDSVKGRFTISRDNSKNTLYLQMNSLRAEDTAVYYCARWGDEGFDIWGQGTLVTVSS VL: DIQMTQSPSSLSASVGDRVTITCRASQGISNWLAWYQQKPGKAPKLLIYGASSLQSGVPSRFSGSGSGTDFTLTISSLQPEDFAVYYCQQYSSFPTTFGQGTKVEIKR , report its measured pKd.
(A) 11.70

Origin of measurements: patent US20130330324A1
